pIC50: −log10 of the molar value.
pIC50 values for ERAP1 (Homo sapiens) compiled from several publications are listed below.

>  <MOLECULE>
O=C(O)c1ccc(C2CCO2)c(S(=O)(=O)Nc2cc(C(F)(F)F)ccc2N2CCCCC2)c1 (stereo not shown)

>  <pIC50>
> 6.30

$$$$
>  <MOLECULE>
COc1ccc(C(=O)O)cc1S(=O)(=O)Nc1cc(C(F)(F)F)ccc1-c1ccccc1F

>  <pIC50>
> 6.30

$$$$
>  <MOLECULE>
COc1ccc(C(=O)O)cc1S(=O)(=O)Nc1cc(C(F)(F)F)ccc1-c1ccsc1

>  <pIC50>
> 6.30

$$$$
>  <MOLECULE>
COc1ccc(C(=O)O)cc1S(=O)(=O)Nc1cc(C(F)(F)F)ccc1N1CC(O)(C2CC2)C1

>  <pIC50>
< 5.30

$$$$
>  <MOLECULE>
COc1ccc(C(=O)O)cc1S(=O)(=O)Nc1cc(S(C)(=O)=O)ccc1N1CCCCC1

>  <pIC50>
> 6.30

$$$$
>  <MOLECULE>
CC1(Oc2cc(Cl)c(C#N)cc2NS(=O)(=O)c2cc(C(=O)O)ccc2C2CC2)CCC1

>  <pIC50>
> 9.00

$$$$
>  <MOLECULE>
CCc1ccc(C(=O)O)cc1S(=O)(=O)Nc1cc(S(C)(=O)=O)ccc1-c1ccc(F)s1

>  <pIC50>
> 6.30

$$$$
>  <MOLECULE>
COc1ccc(C(=O)O)cc1S(=O)(=O)Nc1cc(Cl)ccc1N1CCCC(F)(F)C1

>  <pIC50>
> 6.30

$$$$
>  <MOLECULE>
O=C(O)c1cc(F)c(C2CC2)c(S(=O)(=O)Nc2cc(C(F)(F)F)ccc2C2CCCCN2)c1 (stereo not shown)

>  <pIC50>
> 7.00

$$$$
>  <MOLECULE>
COc1ccc(C(=O)O)cc1S(=O)(=O)Nc1cc(S(C)(=O)=O)ccc1N1CCC[C@@H](F)C1

>  <pIC50>
> 6.30

$$$$
>  <MOLECULE>
COc1ccc(C(=O)O)cc1S(=O)(=O)Nc1cc(C(F)(F)F)ccc1N1CCCC(F)(F)C1

>  <pIC50>
> 6.30

$$$$
>  <MOLECULE>
COc1ccc(C(=O)O)cc1S(=O)(=O)Nc1cc(C(F)(F)F)ccc1-c1ccc(Cl)cc1

>  <pIC50>
> 6.30

$$$$
>  <MOLECULE>
CCc1ccc(C(=O)O)cc1S(=O)(=O)Nc1cc(-n2cnnn2)ccc1N1CCCCC1

>  <pIC50>
> 6.30

$$$$
>  <MOLECULE>
N#Cc1ccc(C2CCCCC2)c(NS(=O)(=O)c2cc(C(=O)O)ccc2C2CC2)c1

>  <pIC50>
> 7.00

$$$$
>  <MOLECULE>
CC(Oc1cc(Cl)c(C#N)cc1NS(=O)(=O)c1cc(C(=O)O)ccc1C1CC1)C1COC1 (stereo not shown)

>  <pIC50>
8.30 to 9.00

$$$$
>  <MOLECULE>
N#Cc1ccc(-c2cccs2)c(NS(=O)(=O)c2cc(C(=O)O)ccc2C2CC2)c1

>  <pIC50>
> 6.30

$$$$
>  <MOLECULE>
COc1ccc(C(=O)O)cc1S(=O)(=O)Nc1cc(-c2nnn[nH]2)ccc1-c1cccc(F)c1

>  <pIC50>
> 6.30

$$$$
>  <MOLECULE>
N#Cc1cc(NS(=O)(=O)c2cc(C(=O)O)ccc2C2CC2)c(OCC2CNC2)cc1Cl

>  <pIC50>
< 8.30

$$$$
>  <MOLECULE>
O=C(O)c1ccc(C2CC2)c(S(=O)(=O)Nc2cc(C(F)(F)F)ccc2N2CCC[C@@H](O)C2)c1

>  <pIC50>
> 6.30

$$$$
>  <MOLECULE>
CC1CC(Oc2cc(Cl)c(C#N)cc2NS(=O)(=O)c2cc(C(=O)O)ccc2C2CC2)C1 (mixture of isomers)

>  <pIC50>
> 9.00

$$$$
>  <MOLECULE>
N#Cc1cc(NS(=O)(=O)c2cc(C(=O)O)ccc2C2CC2)c(-c2cscn2)cc1F

>  <pIC50>
> 6.30

$$$$
>  <MOLECULE>
N#Cc1cc(NS(=O)(=O)c2cc(C(=O)O)ccc2C2CC2)c(OC2CCC2O)cc1Cl (single isomer, unassigned)

>  <pIC50>
> 9.00

$$$$
>  <MOLECULE>
Cc1sncc1-c1ccc(-c2cccnc2)c(NS(=O)(=O)c2cc(C(=O)O)ccc2C2CC2)c1

>  <pIC50>
> 6.30

$$$$
>  <MOLECULE>
COc1ccc(C(=O)O)cc1S(=O)(=O)Nc1cc(C#N)ccc1-c1cccc(F)c1

>  <pIC50>
> 6.30

$$$$
>  <MOLECULE>
CC(Oc1cc(Cl)c(C#N)cc1NS(=O)(=O)c1cc(C(=O)O)ccc1C1CC1)C1CCC1 (stereo not shown)

>  <pIC50>
> 9.00

$$$$
>  <MOLECULE>
N#Cc1ccc(N2CCC(F)CC2)c(NS(=O)(=O)c2cc(C(=O)O)ccc2C2CC2)c1

>  <pIC50>
> 6.30

$$$$
>  <MOLECULE>
COc1ccc(C(=O)O)cc1S(=O)(=O)Nc1cc(C(F)(F)F)ccc1N1CCCC1c1cc(C)no1 (stereo not shown)

>  <pIC50>
> 5.30

$$$$
>  <MOLECULE>
C[C@H](Oc1cc(Cl)c(C#N)cc1NS(=O)(=O)c1cc(C(=O)O)ccc1C1CC1)C1CCC1

>  <pIC50>
> 9.00

$$$$
>  <MOLECULE>
CC1(C)CC(Oc2cc(Cl)c(C#N)cc2NS(=O)(=O)c2cc(C(=O)O)ccc2C2CC2)C1

>  <pIC50>
> 9.00

$$$$
>  <MOLECULE>
CCc1ccc(C(=O)O)cc1S(=O)(=O)Nc1cc(-c2cnoc2C)ccc1N1CCCCC1

>  <pIC50>
> 6.30

$$$$
>  <MOLECULE>
O=C(O)c1ccc(C2CC2)c(S(=O)(=O)Nc2cc(-n3cnnn3)c(F)cc2OC2CCCC2)c1

>  <pIC50>
> 9.00

$$$$
